Source of measurements: ChEMBL document CHEMBL4316584

# Tested on: A549
# procedure text: Cytotoxicity against human A549 cells after 48 hrs by MTS assay
# Type: functional, cell-based
# recorded conditions: A549, 48 h
measured parameter: IC50 (µM)
Answers are plain numbers, in µM.

Data request, read-out IC50, for Cc1cc2ncn(CCCCn3c4ccccc4c4ccccc43)c2cc1C
19.4

---

# Test system: HeLa
# procedure text: Cytotoxicity against human HeLa cells after 48 hrs by MTT assay
# Assay type: functional, cell-based
measured parameter: pIC50
Numbers only, as −log10 of the molar value.

See these solved cases before continuing.
# molecule, pIC50
rows = [
    ("O=C(/C=C/c1cc2c([nH]c3ccccc32)c(-c2ccc(C(F)(F)F)cc2)n1)c1cccs1", 5.02),
    ("CC(=O)N1N=C(c2ccc[nH]2)CC1c1cc2c([nH]c3ccccc32)c(-c2ccc(C(F)(F)F)cc2)n1 (stereo not given)", 5.20),
]

List the reported pIC50 of each molecule below.
1. CC(=O)N1N=C(c2cccs2)CC1c1cc2c([nH]c3ccccc32)c(-c2ccc(C(F)(F)F)cc2)n1 (stereo not given)
2. CCOc1ccc(/C=C2\CCc3c([nH]c4ccc(Cl)cc34)C2=O)cc1OCC

1. 4.72
2. 5.56

Data request, read-out pIC50, for C=CCc1cc2oc3cc(OC)cc(O)c3c(=O)c2c(OC)c1O
4.73

---

# System: HT-29
# procedure text: Cytotoxicity against human HT-29 cells after 48 hrs by MTS assay
# Type: functional, cell-based
# recorded conditions: HT-29, 48 h
measured parameter: IC50
Numeric answer plus unit only.

# smiles data, IC50
data = [
    ("COc1ccc(-c2nc(Cn3cc(CN4C(=O)c5cccc6cccc(c56)C4=O)nn3)cc3c2[nH]c2ccccc23)cc1OC", "7.46 µM"),
    ("Clc1ccc(-c2nc(Cn3cc(COc4ccc(Br)cc4)nn3)cc3c2[nH]c2ccccc23)cc1", "15.6 µM"),
]

# ---- query compound ----
Data request, read-out IC50, for COc1cc(-c2nc(Cn3cc(CN4C(=O)c5ccccc5C4=O)nn3)cc3c2[nH]c2ccccc23)cc(OC)c1OC
5.79 µM

---

# Test system: HeLa
# procedure text: Cytotoxicity against human HeLa cells after 48 hrs by MTT assay
# Type: functional, cell-based
pIC50: −log10 of the molar value.
pIC50 below 5 gives 0 (no); pIC50 at or above it gives 1 (yes).

# molecule, cat
records = [
    ("COc1cc(-c2nc(C3CC(c4cccs4)=NN3C(C)=O)cc3c2[nH]c2ccccc23)cc(OC)c1OC (centres undefined)", "1 (yes)"),
    ("CC(C)C1=C(O)C(=O)C2=C(C=C[C@H]3C(C)(C)CCC[C@]23C)C1=O", "1 (yes)"),
    ("COc1c(O)cc2oc3cc(O)c(C/C=C(/C)CO)c(O)c3c(=O)c2c1C/C=C(\\C)CCCC(C)(C)O", "0 (no)"),
    ("CC(C)c1cc(C(=O)O)c2c(c1O)O[C@H]1C(C)(C)CCC[C@]21C", "0 (no)"),
    ("COc1c(O)cc2oc3cc(O)c(C/C=C(/C)CO)c(O)c3c(=O)c2c1CCC(C)(O)CCC=C(C)C (centres undefined)", "0 (no)"),
]

Tell me whether pIC50 is at least 5 here: COc1cc(-c2nc(/C=C/C(=O)c3ccc(N)cc3)cc3c2[nH]c2ccccc23)ccc1F
0 (no)

What would you report for Cc1cc(C)cc(NC(=O)[C@H](C)NC(=S)NC(=O)[C@]2(C)CCC[C@]3(C)c4ccc(C(C)C)cc4CC[C@@H]23)c1 ?
0 (no)

What would you report for NCCCCNCCNCc1c2ccccc2c(CNCCNCCCCN)c2ccccc12 ?
0 (no)

What would you report for COc1cc(-c2nc(Cn3cc(CN4C(=O)c5ccc(C)cc5C4=O)nn3)cc3c2[nH]c2ccccc23)cc(OC)c1OC ?
0 (no)

What would you report for CCOc1ccc(/C=C2\CCc3c([nH]c4ccc(C)cc34)C2=O)cc1OCC ?
1 (yes)

What would you report for COc1cc2c(=O)c3c(O)c(C/C=C(\C)CCC=C(C)C)c(O)cc3oc2cc1O ?
0 (no)

What would you report for CC(C)c1ccc2c(c1)CC[C@H]1[C@](C)(CO)CCC[C@]21C ?
0 (no)

What would you report for Nc1ccc(C(=O)/C=C/c2cc3c([nH]c4ccccc43)c(-c3ccc(F)cc3)n2)cc1 ?
0 (no)

What would you report for COc1cc(NC(=O)[C@H](Cc2ccccc2)NC(=S)NC(=O)[C@]2(C)CCC[C@]3(C)c4ccc(C(C)C)cc4CC[C@@H]23)cc(OC)c1OC ?
0 (no)

What would you report for Cc1cc(C)cc(NC(=O)[C@H](Cc2ccccc2)NC(=S)NC(=O)[C@]2(C)CCC[C@]3(C)c4ccc(C(C)C)cc4CC[C@@H]23)c1 ?
0 (no)
